% Change Compared to pH 7.4 + Calcium listing for selected binders.
Molecular target: T1, recombinant, soluble human ASGR-1 (human, UniProt P07306 62-291)
T1 construct: biotinylated in the binning assay; also called soluble huASGR-1; Soluble ASGR-1 (Amgen)
T1 sequence: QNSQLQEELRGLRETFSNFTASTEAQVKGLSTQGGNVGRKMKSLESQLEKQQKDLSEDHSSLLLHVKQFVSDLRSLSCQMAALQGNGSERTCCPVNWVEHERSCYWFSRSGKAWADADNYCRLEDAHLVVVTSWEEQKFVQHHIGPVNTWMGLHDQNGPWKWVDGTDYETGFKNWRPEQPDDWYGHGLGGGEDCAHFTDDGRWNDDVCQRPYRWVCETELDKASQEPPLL
Assay: Octet BLI dissociation, pH 5.6 minus calcium
OBSERVED_PROPERTY: % Change Compared to pH 7.4 + Calcium (%)

>>> numeric_readout("148E10 (antibody, V domains shown, hybridoma mAb) VH: QVQLVESGGGVVQPGRSLRLSCAASGFTFSSYGMHWVRQAPGKGLEWVAVIWFDGSNKYYVDSVKDRFTISRDNSKNTLYLQMNSLRAEDTAVYYCARDRVEGSGTPYYYYGMDVWGQGTTVTVSS VL: SYELTQPPSVSVSPGQTASITCSGDKLGNKYVCWYQQRPGHAAVLIIYQDSKRPSGIPERFSGSNSGNTATLTISGTQAMDEADYFCQAWDRNTYVVFGGGTKLTVL")
33
>>> numeric_readout("58G11 (antibody, V domains shown, hybridoma mAb) VH: EVQLVESGGGLVQPGGSLRLSCAASGFTFSSYSMNWVRQAPGKGLEWISYISTSSSTIFYADSVKGRFTISRDSAKNSLYLQMNSLRDEDTAVYYCARGDTAMVLYYYGMDVWGQGTTVTVSS VL: SYELTQPPSVSVSPGQTASITCSGDKLGDKYASWYQQKPGQSPVLVIYQDNKRPSGIPERFSGSNSGNTATLTISGTQAMDEADYYCQAWNNNTVMFGGGTKLTVL")
51
>>> numeric_readout("191G1 (antibody, V domains shown, hybridoma mAb) VH: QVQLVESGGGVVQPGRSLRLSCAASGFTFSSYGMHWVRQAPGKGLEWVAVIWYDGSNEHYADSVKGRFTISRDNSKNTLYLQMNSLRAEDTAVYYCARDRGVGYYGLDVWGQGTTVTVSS VL: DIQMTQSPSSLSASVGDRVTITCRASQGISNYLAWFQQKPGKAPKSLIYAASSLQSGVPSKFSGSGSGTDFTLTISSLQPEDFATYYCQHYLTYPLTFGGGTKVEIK")
-11
